Assay: label from the status in PepcDB records
quantity_name: protein production

[[record]]
ordered_residues = "MAAKPGIPKGTRDFSPVEMAKRNYIFNTIRDVFHLFGYQQIETPSMENLSTLMGKYGDEGDKLLFKIQNSGDYFNGITDEELLSRNAVKLASKFCEKGLRYDLTVPFARYVVMHRDEISFPFKRYQIQPVWRADRPQKGRYREFYQCDADVVGSNSLLNEVELVQMIDRVFGKFGVRVSIKINNRKILTGIAEIIGEADKIVDITVAIDKLDKIGLENVNAELASKGIPQEAIDKLQPIILLSGSNEEKLETLKTVLATSEAGLKGVEESEFILKTVSALGVKSEVELDLTLARGLNYYTGAIFEVKALDVQIGSISGGGRYDNLTGVFGMDGMSGVGISFGADRIFDVLNQLDLYPKE"
readout_value = "not failed"

[[record]]
ordered_residues = "MTHETDQLYQAVQATRPLLRNITAAVERGTLREGVTVGQRAILEGLSLTPGATAPQLGAALQMKRQYISRILQEVQRAGLIERRTNPEHARSHRYWLTPRGEAIITAIRADEMAKLALFSEGFSSVELTAYHKVQLALTRFFADLAKEA"
readout_value = "not failed"


----------
Assay: label from the status in PepcDB records
quantity_name: protein production

Some sequences with known protein production results, for comparison:
[[record]]
ordered_residues = "AIAAADISESSGADCKGDPRNSAKLDADYPLRVLYCGVCSLPTEYCEYMPDVAKCRQWLEKNFPNEFAKLTVENSPKQEAGISEGQGTAGEEEEKKKQKRGGRGQIKQKKKTVPQKVTIAKIPRAKKKYVTRVCGLATFEIDLKEAQRFFAQKFSCGASVTGEDEIIIQGDFTDDIIDVIQEKWPEVDDDSIEDLGEVKK"
quantity_name = "protein production"
readout_value = "failed"

[[record]]
ordered_residues = "MSDRGASAPSLPDDWPAHPDPILALNRMGSFDWDLDAGLFHMDAQAHEVFDLRPEEYDGRPESLALRVPTAESRRMDTIVARAMKDGSENYGTYFRLRRRDGTLRWTHTQGYIRRDETGRPRRIIGIVRDATQ"
quantity_name = "protein production"
readout_value = "failed"

[[record]]
ordered_residues = "MFKKTFSMICCVIFLQGCSQEQEVKKEMTNMETALLAATEKNETNTVISLLKQGANINATDNQGRTPLMIATYKNDVKTAKALIKAGADVNIQDDMKNNPFLYAGAEGYLDILKLTINAGADPTITNRYGGTALIPASEHGYIDVIKELLTRTNIDVNHVNNLGWTALMETIVLSNGNETQQQVIRLLIEHGADVNIPDNDGVTPLEHARAHNFAEIEKILLEGNK"
quantity_name = "protein production"
readout_value = "failed"

[[record]]
ordered_residues = "MRFLFLLFIVFPAIEIGIFLFLGNLIGILPTVLFMILTGIIGAAAAKKQGTEVYYKVQRDLQYGKMPGEAIADGLCIFIGGLLLMLPGFLSDLAGACLLIPFTRGWCKPILFKWLRGMSKNKRIIIK"
quantity_name = "protein production"
readout_value = "failed"

[[record]]
ordered_residues = "MHKYRLVAKKGEGTFSEVLKAQCIKNGKYVAIKCMKNHFDSLDQVNNLREIQALRRLSPHANIIKLLEVLYDQPTGRLALVFELMDMNIYELIRGRRHYVAEERIKNYMYQLMKSMDHMHRNGIFHRDIKPENILIMDDCLKLADFGSCRGIYSKQPYTEYISTRWYRAPECLLTDGYYNYKMDMWGVGCVFFEIVSLFPLFPGTNELDQITKIHNILGTPPPDLLAKMKKRSAHMDFNFPPKEGSGVAKLIPHVNPECVDLIVKLLMYNPDERLSARQALRHPYFRDLREAEKRQKALLAPDVSNHFTAMEADKARQQQTVSSTGSDHEHPTSAGGDGGAGTGAVGTHDGSAAAAAAAAALPSISGARGHAGPEGGHDNDMG"
quantity_name = "protein production"
readout_value = "not failed"


Proceeding to the next sequence to report its protein production.
Query: # lookup: protein production of MRSRVVREGSVGLMLVAGVGALAGLIFWLRGVSLGQDRYDVIVEFNDTAGLTVGTPVIYRGVQVGQVIDITAQSNSVLVRIQIQPASLAIPRDSVISAQISSLLGSPNLTIEPKRNIPAEVLAKTQPRSPNCDRAVILCNGSVVEGAQSASFASILTSIATLVSEIEQAKLVNTLSQTSRDASEAARSIRQLSSSLQQQIPPLRETLNAAQGAASQVEAAIAENRQSVRTTLTNLESSSQELQDILNSLEPAIDKANSGKLVDNLNELSANLAVASRNIRDVSTALNSPENLLTLQQTLDSARITFQNAQKITTDLNRLTGDPAVIENIRRLINSLGRLLSSTGALQEQVTDLKSLPLLPVSESPAGEAVVRRPNQP
Response: failed

----------
Assay: label from the status in PepcDB records
quantity_name: protein production

Some sequences with known protein production results, for comparison:
[[record]]
ordered_residues = "MAKSRLLLSELLDQLSFALCIVRNDYVIVKVNEYFESRVIFDGETMQGKNILELFPESADYLKRKIDTALVIESSSFSSWEQKPHLLPFKSSRPVSGEEEQMYQNLEVIPIHSED"
quantity_name = "protein production"
readout_value = "failed"

[[record]]
ordered_residues = "MKILVTSGGTSEAIDSVRSITNHSTGHLGKIITETLLSAGYEVCLITTKRALKPEPHPNLSIREITNTKDLLIEMQERVQDYQVLIHSMAVSDYTPVYMTGLEEVQASSNLKEFLSKQNHQAKISSTDEVQVLFLKKTPKIISLVKEWNPTIHLIGFKLLVDVTEDHLVDIARKSLIKNQADLIIANDLTQISADQHRAIFVEKNQLQTVQTKEEIAELLLEKIQAYHS"
quantity_name = "protein production"
readout_value = "not failed"

[[record]]
ordered_residues = "MILNPQQRTKLDSRRDDLFYAAPRFVTHVDDFFLARLTDLYRQYLQPQMRVLDLMSSWVSHLPPELSFQEVVGHGMNAAELARNPRLDRYFVQNLNEELALPLEDASFNAVLMAVSVQYLQYPEATFTEIARILKPQGVVIVSFSNRMFFEKAIQAWREGSEGDRVQLVQTYINSTPSLKVIATHLPRLWPWRGFTDPFYAVVGQKQAVLEHHHHHH"
quantity_name = "protein production"
readout_value = "not failed"

[[record]]
ordered_residues = "MDFSLTEEQELLLASIRELITSNFPEEYFRTCDQTGTYPKEFMQALAENGISMLGVPEEFGGIPADYVTQMLALMEISKCGAPAFLITNGQCIHSMRRFGSAEQLRKTAESTLATGDPAYALALTEPGAGSDNNSATTTWTRKNGKVYLNGQKTFITGAKEYPYMLVLARDTEPKDPKKAFTLWWVDSNKPGIKINPLHKIGWHMLSTCEVYLDNVEVDESDRVGEEGMGFLNVMYNFEMERLINAARSTGFAECAFEDAARYANQRIAFGKPIGHNQMIQEKLALMAIKIENMRNMVLKVAWQADREESLRTSAALAKLYCARTAMEVIDDAIQIMGGLGYTDEARVSRFWRDVRCERIGGGTDEIMIYVAGRQILKDYQNK"
quantity_name = "protein production"
readout_value = "failed"

[[record]]
ordered_residues = "MASSVILREDGFAPPKPSPTTHEKASTKGDRDGVECKNSDSEEECLVKKTVAAHTDYIYTQDLNLSP"
quantity_name = "protein production"
readout_value = "failed"


Query: # lookup: protein production of MNKRCEEVLRRYFAEVPFIIEKACELAESMLGEGSHGLSHTIRVLDLALQIGRVEGANLEVLALAAILHDIARPLEDKGRIKDHAQEGARIVRSFLSKLRYPHVDEVAHAIEAHRFSTNIEPRTLEAKILSDADKIDALGAIGIARVFMYAGEKGRSIEDSIKHFEEKILRLKDLMYTETGKRIAQERHKIVEEFVNILKKELILEHHHHHH
Response: not failed

Query: # lookup: protein production of MFELFQYDFMRNALLAATAISIFSPLLGVFLVLRRQSLMSDTLSHVSLAGVAFGVLLSWNPTITTLITVVIAAVFLEYLRTIYHNYMEIATAILMSAGLAIALLILNSSKGATSVSLEQYLFGSIITISLSQVIMLFVLAAVVLLGFILFLRPLYVMTFDEDTAFVDGLPVRWISIAFNIVTGVAIALMIPAAGALLVSAIMVLPASIAMRLGKSFKAVLFISAIVSFIGLNAGLIASYYMDAPASAAITLIFIVLFLVTSSLKRLIRA
Response: failed

----------
Test: label from the status in PepcDB records
quantity_name: protein production

[[record]]
ordered_residues = "MSKVCQVTGKRPVVGNNVSHANNKTKRRFEPNLHHHRFWLESEKRFVRLRLTTKGMRIIDKLGIEKVVADLRAQGQKI"
readout_value = "failed"

[[record]]
ordered_residues = "MSKRSEVLEQFHGGLKNLELQTKRRMGLWGDPKENEEQTLFLEEIENELKQLENKENLKADNNTEFKEENQDTKENQPNDLFSLPLPTQTTINGIKEFVEEPVIETEKKETSQNEPIQEKKERIFKNFFSRIGFDKSIAPTMLFEEVRDASVIYHLEKKLGDYIFYVACFFFGTTALLIILLTILLPLKQKEPYLVQFSNNKENFALVQKADSSITANKALIRSLVGAYVLNRESITHIEQHEKMRQNTIKEQSSNEVWYEFEKLIAHYDSIYTNPLLTRKVKIANIYLDKDLAYIDIEVSLYHSGELESLKRYKVVMSFEFKKQEINFDSMSLNPTGFMVTSYDVTEIAIVNYPTAKAIGLFLAS"
readout_value = "failed"

